Test system: NIH3T3 cells
Assay: cells
Type: cell-based
Conditions: read-out: IC50 NIH3T3
measured_metric: IC50 (µM)

- compound: "O=[As]O [NaAsO2, reference compound]"
  measurement: 10.8

###

Test system: HEK293 cells
Test: cells
Type: cell-based
Conditions: read-out: IC50 HEK293

- compound: "O=[As]O [NaAsO2, reference compound]"
  IC50, µM: 14.6

###

Test system: SGC7901 cells
Assay: cells
Format: cell-based
Settings: Homo sapiens, SGC-7901, 24 h, read-out: IC50 SGC7901
pIC50: −log10 of the molar value.
measured_metric: pIC50

- compound: "Oc1ccccc1C=Nc1ccccc1 [Compound 1a, 2-((phenylimino)methyl) phenol, reference compound]"
  measured_metric: "pIC50"
  qualifier_operator: "<"
  measurement: 4.00
- compound: "O=[As]c1ccc(N=Cc2c3ccccc3cc3ccccc23)cc1 (stereo not shown)"
  measured_metric: "pIC50"
  qualifier_operator: "="
  measurement: 5.12
- compound: "COc1cc(C=Nc2ccc([As]=O)cc2)ccc1O (stereo not shown)"
  measured_metric: "pIC50"
  qualifier_operator: "="
  measurement: 5.67
- compound: "O=[As]c1ccc(N=Cc2ccccc2O)cc1 (stereo not shown)"
  measured_metric: "pIC50"
  qualifier_operator: "="
  measurement: 5.39

Hello, the source for this data is paper PMC4949440, in case you need it.
